Molecular target: human CXCR4 (human, UniProt P61073 1-352)
Sequence (P61073 whole entry): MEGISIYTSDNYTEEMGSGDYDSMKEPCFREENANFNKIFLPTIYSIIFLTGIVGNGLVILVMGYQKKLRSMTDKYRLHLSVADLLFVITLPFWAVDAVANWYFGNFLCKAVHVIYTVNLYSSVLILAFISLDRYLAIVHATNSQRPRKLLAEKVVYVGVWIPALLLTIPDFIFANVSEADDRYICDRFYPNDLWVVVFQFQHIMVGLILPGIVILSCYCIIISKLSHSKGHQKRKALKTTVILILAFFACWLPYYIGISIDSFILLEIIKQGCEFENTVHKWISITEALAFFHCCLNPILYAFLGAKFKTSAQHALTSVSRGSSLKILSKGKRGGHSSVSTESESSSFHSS
Experiment: cell-based or functional assay
[ ]: non-standard residue; d: D form. 2Nal = N[C@@H](Cc1ccc2ccccc2c1)C(=O)O; Cit = NC(=O)NCCC[C@H](N)C(=O)O
Listed below: IC50 (nM) Ca2+ assay (method 1) values for each entry.

{"binder": "cyclo(YR[Cit]VRRR[2Nal]FY[Cit]K[dP]P) (SMILES CC(C)[C@@H]1NC(=O)[C@H](CCCNC(N)=O)NC(=O)[C@H](CCCNC(=N)N)NC(=O)[C@H](Cc2ccc(O)cc2)NC(=O)[C@@H]2CCCN2C(=O)[C@H]2CCCN2C(=O)[C@H](CCCCN)NC(=O)[C@H](CCCNC(N)=O)NC(=O)[C@H](Cc2ccc(O)cc2)NC(=O)[C@H](Cc2ccccc2)NC(=O)[C@H](Cc2ccc3ccccc3c2)NC(=O)[C@H](CCCNC(=N)N)NC(=O)[C@H](CCCNC(=N)N)NC(=O)[C@H](CCCNC(=N)N)NC1=O) [Example 4]", "IC50 (nM) Ca2+ assay (method 1)": "2540 nM"}
{"binder": "cyclo(YR[Cit]FR[Cit]PRR[2Nal]VY[Cit]K[dP]P) (SMILES CC(C)[C@@H]1NC(=O)[C@H](Cc2ccc3ccccc3c2)NC(=O)[C@H](CCCNC(=N)N)NC(=O)[C@H](CCCNC(=N)N)NC(=O)[C@@H]2CCCN2C(=O)[C@H](CCCNC(N)=O)NC(=O)[C@H](CCCNC(=N)N)NC(=O)[C@H](Cc2ccccc2)NC(=O)[C@H](CCCNC(N)=O)NC(=O)[C@H](CCCNC(=N)N)NC(=O)[C@H](Cc2ccc(O)cc2)NC(=O)[C@@H]2CCCN2C(=O)[C@H]2CCCN2C(=O)[C@H](CCCCN)NC(=O)[C@H](CCCNC(N)=O)NC(=O)[C@H](Cc2ccc(O)cc2)NC1=O) [Example 20]", "IC50 (nM) Ca2+ assay (method 1)": "3730 nM"}
{"binder": "cyclo(YR[Cit]FRRR[2Nal]FY[Cit]K[dP]P) (SMILES N=C(N)NCCC[C@@H]1NC(=O)[C@H](CCCNC(=N)N)NC(=O)[C@H](Cc2ccccc2)NC(=O)[C@H](CCCNC(N)=O)NC(=O)[C@H](CCCNC(=N)N)NC(=O)[C@H](Cc2ccc(O)cc2)NC(=O)[C@@H]2CCCN2C(=O)[C@H]2CCCN2C(=O)[C@H](CCCCN)NC(=O)[C@H](CCCNC(N)=O)NC(=O)[C@H](Cc2ccc(O)cc2)NC(=O)[C@H](Cc2ccccc2)NC(=O)[C@H](Cc2ccc3ccccc3c2)NC(=O)[C@H](CCCNC(=N)N)NC1=O) [Example 3]", "IC50 (nM) Ca2+ assay (method 1)": "1000 nM"}
{"binder": "cyclo(YR[Cit]VRRR[2Nal]VY[Cit]K[dP]P) (SMILES CC(C)[C@@H]1NC(=O)[C@H](CCCNC(N)=O)NC(=O)[C@H](CCCNC(=N)N)NC(=O)[C@H](Cc2ccc(O)cc2)NC(=O)[C@@H]2CCCN2C(=O)[C@H]2CCCN2C(=O)[C@H](CCCCN)NC(=O)[C@H](CCCNC(N)=O)NC(=O)[C@H](Cc2ccc(O)cc2)NC(=O)[C@H](C(C)C)NC(=O)[C@H](Cc2ccc3ccccc3c2)NC(=O)[C@H](CCCNC(=N)N)NC(=O)[C@H](CCCNC(=N)N)NC(=O)[C@H](CCCNC(=N)N)NC1=O) [Example 6]", "IC50 (nM) Ca2+ assay (method 1)": "1930 nM"}
